The origin of these recorded values is patent US20210363269A1.

- ASSAYED TARGET: T1, high affinity SIRP-α D1 variant CV1-3
- T1 chain: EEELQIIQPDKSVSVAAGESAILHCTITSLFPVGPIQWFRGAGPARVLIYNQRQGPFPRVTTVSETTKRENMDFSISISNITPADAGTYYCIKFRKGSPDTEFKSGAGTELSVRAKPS
- ASSAY TEXT: SPR, Langmuir fit
QUANTITY MEASURED: koff (s⁻¹)
Just the number in s⁻¹, nothing appended.

### Prompt Entry under review: S194 (scFv, V domains shown) VH: DVQLVESGGGVVRPGESLRLSCAASGFTFRNYGMSWVRQAPGEGLEWVSASSGSGSTYYADSVKGRFTISRDNSKNTLYLQMNSLRAEDTAIYYCAKVTWNNFFDYWGLGTLVTVSS VL: EIVLAQSPDTLSVSPGERATLTCRASQDVAGKLAWYQQKPGQAPRLLIHATSSRADGIPARFSGSGSGTEFTLTITGLQSEDFAVYYCQQHYDWSPLTFGGGTKVEIK . Reported koff?
### Response 0.00111

### Prompt Try this binder next: S55 (scFv, V domains shown, also called clone 55) VH: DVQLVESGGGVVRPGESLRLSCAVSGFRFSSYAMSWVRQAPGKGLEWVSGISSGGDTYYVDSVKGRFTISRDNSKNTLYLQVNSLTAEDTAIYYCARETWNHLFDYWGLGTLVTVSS VL: ALTQPASVSANLGETVEITCSGGDSSSHYYGWYQQKSPGSAPVTVIYSDDERPSDIPSRFSGSASGSTATLTITGVRVEDEAIYYCGAYDGSTYANTFGAGTTLTVL
### Response 6e-05

### Prompt Try this binder next: S213 (scFv, V domains shown, also called clone 213) VH: DVQLVESGGGVVRPGESLRLSCEASGFTFRNYYMTWVRQAPGEGLEWVSTISDTGDTAYYADSVKGRFTISRDNSKNSLYLQMNSLRADDTAIYYCAKSWIWWTFFDYWGLGTLVTVSS VL: ALTQPASVSANLGGTVEITCSGGNSNHYGWYQQKSPGSAPVTLIYADTNRPSNIPSRFSGSTSGSTTTLTITGVQAEDEAVYYCGGSSTGDGIFGAGTTLTVL
### Response 0.00482
